Values compiled from PubChem BioAssay AID1919006.

Test system: 885512-296-R-J2-PDC complex spheroid growth, % test/control;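 also: spheroids exposed to compounds for seven days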
Assay Explanation: Anticancer human tumor 885512-296-R-J2-PDC patient-derived breast carcinoma cell line growth inhibition [AhR]
Experimental Context: curve of first compound; second compound 1 µM
pIC50: −log10 of the molar value.
Readout Kind: pIC50

# annotated cases, reported pIC50 shown
Compound	pIC50
Nc1ncn(C2CC(O)C(CO)S2)c(=O)n1 (stereo not drawn) + Cc1cncc(-c2nc(NCCc3c[nH]c4ccccc34)c3ncn(C(C)C)c3n2)c1	7.35
NS(=O)(=O)OCC1CC(n2ccc3c(NC4CCc5ccccc54)ncnc32)CC1O (stereo not drawn) + CC(CO)NC(=O)c1cc(-c2ccc(Cl)cc2)nn(-c2cnn(C)c2)c1=O	7.00
O=C(C=Cn1cnc(-c2cc(C(F)(F)F)cc(C(F)(F)F)c2)n1)NNc1cnccn1 + CC(CO)NC(=O)c1cc(-c2ccc(Cl)cc2)nn(-c2cnn(C)c2)c1=O	7.14

P. Nc1ccccc1NC(=O)c1ccc(CNC(=O)OCc2cccnc2)cc1 + Cc1cncc(-c2nc(NCCc3c[nH]c4ccccc34)c3ncn(C(C)C)c3n2)c1
Q. O=C(C=Cn1cnc(-c2cc(C(F)(F)F)cc(C(F)(F)F)c2)n1)NNc1cnccn1 + Cc1ccccc1N=Nc1ccc(NC(=O)c2ccnn2C)c(C)c1
R. CC1(C)CCC(CN2CCN(c3ccc(C(=O)NS(=O)(=O)c4ccc(NCC5CCOCC5)c([N+](=O)[O-])c4)c(Oc4cnc5[nH]ccc5c4)c3)CC2)=C(c2ccc(Cl)cc2)C1 + Cc1cncc(-c2nc(NCCc3c[nH]c4ccccc34)c3ncn(C(C)C)c3n2)c1
Sort the compounds on pIC50; start with the lowest figure. Put the labels in the requested order and list them out. R, P, Q
(R: 5.41, P: 5.97, Q: 7.17)
